- systemUnderTest: human 5-HT3AB receptors (Homo sapiens, UniProt O95264+P46098)
- Construct: expressed in transfected cells; host or cells: Xenopus laevis oocytes (cRNA from pGEMHE)
- Sequence (P46098 24-478): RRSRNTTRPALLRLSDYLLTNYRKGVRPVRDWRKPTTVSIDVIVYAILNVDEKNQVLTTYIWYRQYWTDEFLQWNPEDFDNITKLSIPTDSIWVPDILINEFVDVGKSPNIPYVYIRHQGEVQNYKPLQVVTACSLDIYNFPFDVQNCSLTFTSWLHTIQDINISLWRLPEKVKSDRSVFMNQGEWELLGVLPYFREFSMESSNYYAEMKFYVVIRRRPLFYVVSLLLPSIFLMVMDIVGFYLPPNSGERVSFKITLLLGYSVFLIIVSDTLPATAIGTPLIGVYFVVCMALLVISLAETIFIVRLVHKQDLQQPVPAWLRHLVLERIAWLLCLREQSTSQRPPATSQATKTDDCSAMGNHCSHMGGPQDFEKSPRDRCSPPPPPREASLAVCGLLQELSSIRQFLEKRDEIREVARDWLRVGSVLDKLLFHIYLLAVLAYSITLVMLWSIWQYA
- Sequence (O95264 22-441): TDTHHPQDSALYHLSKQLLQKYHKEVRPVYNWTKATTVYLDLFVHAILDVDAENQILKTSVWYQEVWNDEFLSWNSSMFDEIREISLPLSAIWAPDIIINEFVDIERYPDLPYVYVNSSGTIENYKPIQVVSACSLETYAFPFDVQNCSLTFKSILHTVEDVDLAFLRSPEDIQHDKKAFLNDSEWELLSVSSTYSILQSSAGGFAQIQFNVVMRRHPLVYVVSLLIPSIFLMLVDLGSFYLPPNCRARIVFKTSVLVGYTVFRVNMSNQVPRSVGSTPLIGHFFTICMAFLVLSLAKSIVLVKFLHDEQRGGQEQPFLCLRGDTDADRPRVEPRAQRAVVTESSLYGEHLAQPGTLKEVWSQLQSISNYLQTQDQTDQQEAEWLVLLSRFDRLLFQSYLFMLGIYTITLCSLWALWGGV
- testDescription: Two-electrode voltage clamp of 5-HT-induced currents in Xenopus oocytes
- Type: cell-based
- studyConditions: IC50, inhibition of 5-HT EC50 response (28 μM 5-HT), oocytes

compound	systemUnderTest	IC50, µM
C=C(C)[C@@H]1[C@H]2OC(=O)[C@@H]1[C@]1(O)C[C@H]3O[C@]34C(=O)O[C@H]2[C@]14C	human 5-HT3AB receptors (Homo sapiens, UniProt O95264+P46098)	62
CC(C)(O)[C@@H]1[C@H]2OC(=O)[C@@H]1[C@]1(O)C[C@H]3O[C@]34C(=O)O[C@H]2[C@]14C	human 5-HT3AB receptors (Homo sapiens, UniProt O95264+P46098)	2900
CC(C)(C)[C@]1(O)CC2OC(=O)CC23C(=O)OC2OC(=O)[C@H](O)C231 (stereo partly drawn) [BB, bilobalide]	human 5-HT3AB receptors (Homo sapiens, UniProt O95264+P46098)	3200

// data source = paper PMC3070799
